Source listed as patent US20250313552A1.

# Test system: Keratinocytes
# ASSAY_TEXT: NAD assay in keratinocytes (NAD+ increase)
# Type: cell-based
# CONDITION_LABEL: 3 hours incubation with compound, normalized NAD, ratio vs PBS control
MEASURED_PROPERTY: NAD+ increase ratio compared to PBS control
Give a plain numeric answer without units written out.

# count of solved cases: 5
* O=C1O[C@H]([C@@H](O)COC(=O)c2cccnc2)C(O)=C1O | 0.99
* NC(=O)c1ccc[n+]([C@@H]2O[C@H](COC(=O)CCCCC3CCSS3)[C@@H](OC(=O)CCCCC3CCSS3)[C@H]2OC(=O)CCCCC2CCSS2)c1 (some centres unmarked) | 1.16
* O=C1O[C@H]([C@@H](O)COC(=O)c2cccnc2)C(O)=C1O[C@H]1O[C@H](CO)[C@@H](O)[C@H](O)[C@H]1O | 1.5
* O=C1O[C@H]([C@@H](O)COC(=O)c2cccnc2)C(O)=C1O[C@H]1O[C@H](COC(=O)c2cccnc2)[C@@H](O)[C@H](O)[C@H]1O | 1.5
* O=C(OCc1cc(=O)c(OC(=O)c2cccnc2)co1)c1cccnc1 | 1.51

Please supply the value of reported NAD+ increase ratio compared to PBS control for the item O=C(/C=C/C=C/c1ccc2c(c1)OCO2)NCCOC(=O)c1cccnc1 1.57

Complete the entry with NAD+ increase ratio compared to PBS control for O=C(CCC[P+](c1ccccc1)(c1ccccc1)c1ccccc1)NCCOC(=O)c1cccnc1 1.67

State its NAD+ increase ratio compared to PBS control for this compound: CCCCCCCCCCCCCCCC(=O)OC[C@@H](O)[C@@H]1OC(=O)C(OC(=O)c2cccnc2)=C1OC(=O)c1cccnc1 8.19
